- Test system: HeLa cells
- METHOD_NOTES: Cytotoxicity (WST-1 turnover and/or cell morphology)
- Assay type: cell-based
Property: Cytotoxicity; scope: individual compounds

The examples below pair each entry with its known result.
- COMPOUND: "OCCS"
  Cytotoxicity: ">100 µg/mL"
- COMPOUND: "Cl.N=C(N)N [Guanidine hydrochloride]"
  Cytotoxicity: ">475 µg/mL"
- COMPOUND: "C[C@@H]1[C@H](O)[C@@H](C)/C=C/C=C/CC/C=C/C=C/C=C/C=C/C(O[C@H]2O[C@H](C)[C@@H](O)[C@H](N)[C@@H]2O)CC2O[C@](O)(CC(O)C(O)CCC(O)CC(O)CC(O)CC(=O)O[C@H]1C)CC(O)C2C(=O)O (stereo partly drawn)"
  Cytotoxicity: "100 µg/mL"
- COMPOUND: "O[C@@H](CS)[C@@H](O)CS"
  Cytotoxicity: ">100 µg/mL"
- COMPOUND: "CCCCCCCCCCCCOS(=O)(=O)[O-].[Na+] [Sodium dodecyl sulfate]"
  Cytotoxicity: "333 µg/mL"

Request body: readout Cytotoxicity, system HeLa cells, query "O=C(O)c1cc(SSc2ccc([N+](=O)[O-])c(C(=O)O)c2)ccc1[N+](=O)[O-]" . Return the value.
1,300 μg/ml

###

- METHOD_NOTES: Cytotoxicity (WST-1 turnover and/or cell morphology)
- Type: cell-based
- CONDITIONS_USED: human, HeLa cells; >50% reduction in WST-1 turnover and/or altered cell morphology
Positions of bridges follow the written chain, without caps; N, C: chain ends. Non-standard residues stand in square brackets, D forms with d. Residues, ends and D or L forms follow the SMILES beside them. *: point of attachment. Ileψ(thiazoline)Cys = CC[C@H](C)[C@H](N)C1=N[C@H](C(=O)*)CS1; dOrn = NCCC[C@@H](N)C(=O)O
OBSERVATION_TYPE: CC50

- MOLECULE: "C[C@@H](O)[C@H](N)C(=O)N[C@@H](CCCCN)C(=O)N1CCC[C@H]1C(=O)N[C@@H](CCCNC(=N)N)C(=O)O [Tuftsin] (H-TKPR-OH; N-terminus and C-terminus assumed)"
  OBSERVATION_TYPE: "CC50"
  RECORDED_MEASUREMENT: "> 100 mg/L"
- MOLECULE: "CC[C@H](C)[C@H](NC(=O)[C@H](CCCCN)NC(=O)[C@H](CCCCN)NC(=O)[C@H](Cc1ccccc1)NC(=O)[C@H](CC(C)C)NC(=O)[C@H](CCCCN)NC(=O)[C@H](Cc1c[nH]c2ccccc12)NC(=O)[C@@H](N)CCCCN)C(=O)NCC(=O)N[C@@H](C)C(=O)N[C@H](C(=O)N[C@@H](CC(C)C)C(=O)N[C@@H](CCCCN)C(=O)N[C@H](C(=O)N[C@@H](CC(C)C)C(N)=O)C(C)C)C(C)C [Cecropin A-Mellitin hybrid] (H-KWKLFKKIGAVLKVL-NH2; N-terminus and C-terminus assumed)"
  OBSERVATION_TYPE: "CC50"
  RECORDED_MEASUREMENT: "11 mg/L"

Given the molecule CC(C)[C@H](NC(=O)[C@H](CCCCN)NC(=O)CNC(=O)CNC(=O)[C@H](CCC(N)=O)NC(=O)[C@H](CCCCN)NC(=O)CNC(=O)[C@H](CCCNC(=N)N)NC(=O)CNC(=O)[C@@H](N)CCCCN)C(=O)N[C@@H](CCCNC(=N)N)C(=O)N[C@@H](C)C(=O)N[C@@H](CCCCN)C(=O)N[C@@H](C)C(=O)N[C@@H](CCCCN)C(=O)N[C@H](C(=O)N[C@@H](CCCNC(=N)N)C(=O)N[C@@H](CO)C(=O)N[C@@H](CO)C(=O)O)[C@@H](C)O [Parasin-I] (H-KGRGKQGGKVRAKAKTRSS-OH) , what is its reported CC50?
> 100 mg/L

State the recorded CC50 for this entry: "N=C(N)NCCC[C@H](NC(=O)[C@H](CCCNC(=N)N)NC(=O)[C@H](CCCNC(=N)N)NC(=O)[C@H](CCCNC(=N)N)NC(=O)[C@H](CCCNC(=N)N)NC(=O)[C@H](CCCNC(=N)N)NC(=O)[C@@H](N)CCCNC(=N)N)C(=O)O"
> 100 mg/L

What does the record list as CC50 for CSCC[C@H](NC(=O)[C@H](CCCNC(=N)N)NC(=O)[C@H](Cc1c[nH]c2ccccc12)NC(=O)[C@H](CCC(N)=O)NC(=O)[C@H](Cc1c[nH]c2ccccc12)NC(=O)[C@H](CCCNC(=N)N)NC(=O)[C@@H](N)CCCNC(=N)N)C(=O)N[C@@H](CCCCN)C(=O)N[C@@H](CCCCN)C(=O)N[C@@H](CC(C)C)C(=O)NCC(=O)O [Lactoferricin B 4–14 fragment] (H-RRWQWRMKKLG-OH; N-terminus and C-terminus assumed) ?
> 15 mg/L

Could you share which CC50 value was measured for CC[C@H](C)[C@H](N)C1=N[C@H](C(=O)N[C@@H](CC(C)C)C(=O)N[C@H](CCC(=O)O)C(=O)N[C@H](C(=O)N[C@H]2CCCCNC(=O)[C@H](CC(N)=O)NC(=O)[C@@H](CC(=O)O)NC(=O)[C@H](Cc3cnc[nH]3)NC(=O)[C@@H](Cc3ccccc3)NC(=O)[C@H]([C@@H](C)CC)NC(=O)[C@@H](CCCN)NC2=O)[C@@H](C)CC)CS1 [Bacitracin] ({Ileψ(thiazoline)Cys}-L[dE]IK[dOrn]I[dF]H[dD]N; lactam 4-C (inferred)) ?
> 420 mg/L
